Assay: Drug metabolism in human liver microsomes assessed as drug glucuronidation in presence of BSA by LC-MS/MS method
Assay type: ADME
Conditions: read-out: KmH
EXPERIMENTAL READOUT: Km (µM)
Kindly answer with a numeric value in µM, unit omitted.

Annotate the compound `CC1=NN(c2ccccc2)C(=O)C1` with its measured Km.
8.4

====

Experiment: Drug metabolism in human kidney microsomes assessed as intrinsic clearance for drug glucuronidation per mg tissue in absence of BSA by LC-MS/MS method
Format: ADME
EXPERIMENTAL READOUT: CL(low) (µL/min/mg)
Provide only the numeric value, understood in µL/min/mg.

Hello, please tell me recorded CL(low) for this one: `CC1=NN(c2ccccc2)C(=O)C1`
1.8
